Values compiled from the supplement of paper PMC9170038.

The entries below come with measured apparent KD of MS2 coat protein values attached.
# System: MS2 coat protein
# MEASUREMENT_DESCRIPTION: apparent KD of MS2 coat protein; designed switch direction (-1 OFF switch, 1 ON switch): -1; higher = weaker reporter binding
# CONDITION_NOTES: input ligand: none
Field: numeric (nM). Do not append units.

Below, 2 sequences whose answers are already recorded.
- SEQUENCE_TEXT: "ACAUGAGGAUCACCCAUGUUUGGCUGGUUUUCUCCGGCUGUCGAGGAUAUAGUCCGGUAUCCGCGCUAGAAGGUGAGGGUCGGC [Aenatbe mod 3] (Eterna round: R96, puzzle: Exclusion NG 3)"
  MEASURED_NUMBER: 21.6
- SEQUENCE_TEXT: "AGAUCUAGGACAGGAUAUACAGAUGGCUUCAUCGAAGAUGAAGCCAUUACAUGAGGAUCACCCAUGUAGAAGGGUCCUAGAUCA [Omei Exc(NG) 2Av5] (Eterna round: R96, puzzle: Exclusion NG 2)"
  MEASURED_NUMBER: 14.2

Next sequence, apparent KD of MS2 coat protein to be filled in.
Item: ACUUAUAGAGGAUAUACAGUUAAUUACAUGAGGAUCACCCAUGUUCUUCAAUGUAUAUAAGUAGAAGGCUAAAGGA [Mat - Exclusion 5 - Eli Mod - D6] (Eterna round: R97, puzzle: Exclusion 5) | apparent KD of MS2 coat protein: 19.3
